Data credit: the supplement of paper PMC10567573

Reported protein stability index values follow for various variants
B1: TMEM106C (parent)
chain: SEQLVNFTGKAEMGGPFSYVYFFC

# Variants of: B1
# assay: protein stability index of a GFP-peptide fusion (GPS, HEK-293T) (PSI 1-6); higher = more stable;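 also: lentivirally expressed fusions sorted by FACS into six bins by GFP to DsRed ratio, PSI derived from sequencing read proportions per bin multiplied by bin number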
# assayContext: c terminus: a fixed tail appended
endpoint: protein stability index

{"columns": ["mutationSpec", "endpoint", "result"],
 "data": [
  ["F7H", "protein stability index", 2.79],
  ["P16S", "protein stability index", 2.1],
  ["P16L", "protein stability index", 3.79],
  ["P16Y", "protein stability index", 3.76],
  ["G9F", "protein stability index", 2.01],
  ["G15W", "protein stability index", 2.36],
  ["Q3F", "protein stability index", 2.76],
  ["K10S", "protein stability index", 3.56],
  ["N6P", "protein stability index", 1.58],
  ["Q3K", "protein stability index", 2.79],
  ["A11S", "protein stability index", 2.17],
  ["F23I", "protein stability index", 2.42],
  ["L4D", "protein stability index", 2.39],
  ["C24A", "protein stability index", 3.11],
  ["F17K", "protein stability index", 2.42],
  ["Y19F", "protein stability index", 2.11],
  ["P16K", "protein stability index", 2.98],
  ["Y21A", "protein stability index", 3.06],
  ["K10L", "protein stability index", 1.94],
  ["A11W", "protein stability index", 2.75],
  ["G15I", "protein stability index", 3.9],
  ["E12F", "protein stability index", 2.67],
  ["K10P", "protein stability index", 2.32],
  ["F17V", "protein stability index", 2.46],
  ["N6T", "protein stability index", 2.97],
  ["A11M", "protein stability index", 2.61],
  ["P16H", "protein stability index", 2.25],
  ["C24W", "protein stability index", 3.35],
  ["C24P", "protein stability index", 1.73],
  ["M13R", "protein stability index", 2.54],
  ["A11H", "protein stability index", 2.39],
  ["Q3V", "protein stability index", 3.16],
  ["S1H", "protein stability index", 3.23],
  ["S1C", "protein stability index", 2.6],
  ["G15N", "protein stability index", 2.23],
  ["P16W", "protein stability index", 2.94],
  ["L4Y", "protein stability index", 3.31],
  ["F23C", "protein stability index", 2.54],
  ["Y19W", "protein stability index", 2.46],
  ["V20H", "protein stability index", 2.53],
  ["V20F", "protein stability index", 2.17],
  ["Y21P", "protein stability index", 1.49],
  ["G9V", "protein stability index", 3.09],
  ["S18L", "protein stability index", 3.3],
  ["E2R", "protein stability index", 2.85],
  ["Y19I", "protein stability index", 2.51],
  ["K10C", "protein stability index", 2.55],
  ["T8R", "protein stability index", 2.65],
  ["P16A", "protein stability index", 2.25],
  ["V5C", "protein stability index", 2.67],
  ["F22P", "protein stability index", 2.06],
  ["A11I", "protein stability index", 2.16],
  ["A11P", "protein stability index", 4.32],
  ["V20L", "protein stability index", 2.07],
  ["G15R", "protein stability index", 2.79],
  ["Y19D", "protein stability index", 1.91],
  ["V5H", "protein stability index", 2.52],
  ["A11T", "protein stability index", 3.55],
  ["M13V", "protein stability index", 3.14],
  ["S1Y", "protein stability index", 1.72],
  ["M13P", "protein stability index", 2.52],
  ["Y21Q", "protein stability index", 2.15],
  ["S18K", "protein stability index", 2.25]
]}
